tgt: hERG (Homo sapiens, UniProt Q12809)
Construct: expressed in transfected cells
Sequence (Q12809 whole entry): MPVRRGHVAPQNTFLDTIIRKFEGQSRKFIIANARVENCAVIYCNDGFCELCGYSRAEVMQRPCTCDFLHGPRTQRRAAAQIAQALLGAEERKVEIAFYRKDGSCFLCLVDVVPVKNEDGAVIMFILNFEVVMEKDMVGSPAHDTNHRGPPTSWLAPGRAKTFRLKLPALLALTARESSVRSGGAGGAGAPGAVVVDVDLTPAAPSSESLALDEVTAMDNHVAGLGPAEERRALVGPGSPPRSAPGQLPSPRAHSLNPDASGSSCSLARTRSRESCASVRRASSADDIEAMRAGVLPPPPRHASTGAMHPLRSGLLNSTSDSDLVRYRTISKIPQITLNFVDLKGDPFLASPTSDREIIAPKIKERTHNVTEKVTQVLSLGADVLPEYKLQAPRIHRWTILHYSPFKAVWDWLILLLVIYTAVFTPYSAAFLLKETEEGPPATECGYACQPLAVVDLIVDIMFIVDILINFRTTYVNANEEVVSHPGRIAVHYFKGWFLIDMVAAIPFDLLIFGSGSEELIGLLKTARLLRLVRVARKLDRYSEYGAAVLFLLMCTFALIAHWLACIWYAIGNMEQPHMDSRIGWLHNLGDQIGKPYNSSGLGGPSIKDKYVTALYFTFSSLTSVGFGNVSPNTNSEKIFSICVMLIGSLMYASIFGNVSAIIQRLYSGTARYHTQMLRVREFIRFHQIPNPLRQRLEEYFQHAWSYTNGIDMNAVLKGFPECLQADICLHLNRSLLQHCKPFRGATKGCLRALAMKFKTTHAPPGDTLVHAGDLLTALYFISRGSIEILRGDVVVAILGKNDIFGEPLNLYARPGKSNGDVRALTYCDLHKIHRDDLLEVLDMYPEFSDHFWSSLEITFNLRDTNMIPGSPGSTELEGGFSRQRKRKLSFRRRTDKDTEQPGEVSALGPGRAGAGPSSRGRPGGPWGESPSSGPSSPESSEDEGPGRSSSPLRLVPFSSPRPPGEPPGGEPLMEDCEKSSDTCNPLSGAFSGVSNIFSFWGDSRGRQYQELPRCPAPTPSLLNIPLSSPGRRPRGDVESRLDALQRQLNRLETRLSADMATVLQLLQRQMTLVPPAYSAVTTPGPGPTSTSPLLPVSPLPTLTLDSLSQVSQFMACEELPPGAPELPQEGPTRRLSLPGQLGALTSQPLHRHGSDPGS
assay details: hERG assay (hERG currents in HEK 293 cells)
Type: cell-based
run conditions: hERG stably expressed HEK 293 cells
pIC50: −log10 of the molar value.

# compound, measurement qualifier, pIC50
data = [
    ("CC(C)(C)c1ccc(C(C)(C)C)c(NC(=O)[C@H]2CCC3C4CNC5=CC(=O)CC[C@]5(C)C4CC[C@@]32C)c1 (stereo partly drawn)", "=", 6.02),
    ("COc1nc(OC(F)(F)F)c(NC(=O)C2CCC3C4CN(C(=O)OC(C)(C)C)C5=CC(=O)CC[C@]5(C)C4CC[C@]23C)cc1Br (stereo partly drawn)", "<", 4.52),
    ("CCCN1CC2C(CC[C@@]3(C)C2CC[C@@H]3C(=O)Nc2cc(C(C)(C)C)ccc2C(C)(C)C)[C@@]2(C)CCC(=O)C=C12 (stereo partly drawn)", "=", 6.13),
]

* * *

assay details: in vivo
run conditions: male, CD-1, mouse, iv, 1 mg/kg

# molecule, Tmax
measured = [
    ("COc1nc(OC(F)(F)F)c(NC(=O)C2CCC3C4CN(C(=O)OC(C)(C)C)C5=CC(=O)CC[C@]5(C)C4CC[C@]23C)cc1Br (stereo partly shown)", "5 min"),
]

* * *

tgt: CYP1A2 (Homo sapiens, UniProt P05177)
Construct: using pooled male and female human liver microsomes; from tissue; host or cells: pooled human liver microsomes
Sequence (P05177 whole entry): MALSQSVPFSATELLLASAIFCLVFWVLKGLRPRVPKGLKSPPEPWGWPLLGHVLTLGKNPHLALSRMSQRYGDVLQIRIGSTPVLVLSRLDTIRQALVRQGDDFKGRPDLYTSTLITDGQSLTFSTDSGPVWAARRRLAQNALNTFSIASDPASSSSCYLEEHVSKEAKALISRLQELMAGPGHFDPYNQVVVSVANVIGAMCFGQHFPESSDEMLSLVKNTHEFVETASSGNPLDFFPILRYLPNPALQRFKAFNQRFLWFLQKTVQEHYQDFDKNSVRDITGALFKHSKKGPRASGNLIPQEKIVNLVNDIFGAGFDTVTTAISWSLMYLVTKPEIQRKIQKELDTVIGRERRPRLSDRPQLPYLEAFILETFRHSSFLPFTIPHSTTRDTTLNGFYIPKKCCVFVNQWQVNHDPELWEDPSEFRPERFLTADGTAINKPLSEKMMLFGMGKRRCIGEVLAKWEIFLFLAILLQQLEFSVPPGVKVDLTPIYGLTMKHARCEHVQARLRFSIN
assay details: in vitro
Format: in vitro ADME
run conditions: both sexes, microsomes, read-out: % Inhibition 1A2

# compound, tgt, inhibition at 10 µM, %
records = [
    ("COc1nc(OC(F)(F)F)c(NC(=O)C2CCC3C4CN(C(=O)OC(C)(C)C)C5=CC(=O)CC[C@]5(C)C4CC[C@]23C)cc1Br (stereo partly shown) [Compound 107]", "CYP1A2 (Homo sapiens, UniProt P05177)", 0),
]

Values compiled from patent US11072633B2.
